# Assay System: T7 RNA polymerase (Escherichia phage T7)
# Sequence (P00573 whole entry): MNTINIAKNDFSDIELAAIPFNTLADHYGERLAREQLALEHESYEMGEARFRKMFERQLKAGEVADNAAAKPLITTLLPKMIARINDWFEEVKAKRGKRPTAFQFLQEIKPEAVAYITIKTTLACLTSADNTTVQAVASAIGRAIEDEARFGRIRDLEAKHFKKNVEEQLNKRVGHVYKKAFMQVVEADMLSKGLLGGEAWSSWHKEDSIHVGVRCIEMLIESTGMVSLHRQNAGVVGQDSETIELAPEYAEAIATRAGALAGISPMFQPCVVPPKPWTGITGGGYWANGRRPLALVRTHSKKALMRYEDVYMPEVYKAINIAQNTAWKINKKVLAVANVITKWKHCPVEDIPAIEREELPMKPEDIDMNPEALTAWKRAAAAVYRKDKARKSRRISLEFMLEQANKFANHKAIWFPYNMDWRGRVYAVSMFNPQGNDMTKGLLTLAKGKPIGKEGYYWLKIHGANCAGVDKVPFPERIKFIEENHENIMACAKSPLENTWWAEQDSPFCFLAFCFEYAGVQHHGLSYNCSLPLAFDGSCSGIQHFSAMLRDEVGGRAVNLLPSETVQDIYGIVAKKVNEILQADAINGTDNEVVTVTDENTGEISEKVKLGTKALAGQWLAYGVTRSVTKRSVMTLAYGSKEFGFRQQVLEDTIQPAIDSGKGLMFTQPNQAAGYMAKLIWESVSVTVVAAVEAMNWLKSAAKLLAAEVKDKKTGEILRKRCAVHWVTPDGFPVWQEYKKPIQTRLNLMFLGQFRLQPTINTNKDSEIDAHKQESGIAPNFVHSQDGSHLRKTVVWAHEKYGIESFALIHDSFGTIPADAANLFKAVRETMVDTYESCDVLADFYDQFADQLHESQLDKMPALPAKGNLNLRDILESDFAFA
# Experimental Details: In vitro transcription yield of mRNA with cap analog (co-transcriptional capping)
# Assay type: biochemical
# Measurement Conditions: in vitro transcription, 1 μg DNA template, 20 μL system, 37° C. 2 hours
Observation Type: Yield per unit template (µg)
Report only the number, with the unit µg understood.

COC1C(OP(=O)([O-])OC[C@H]2O[C@@H](n3cnc4c(=O)[nH]c(N)nc43)C(O)C2O)[C@@H](COP(=O)(O)OP(=O)(O)OP(=O)(O)OC[C@]23O[C@@H]([n+]4cn(C)c5c(=O)[nH]c(N)nc54)C(O[C@H]2CC(F)F)C3O)O[C@H]1n1cnc2c(N)ncnc21 (stereo partly shown) :: 163.2

Query string: Consider the compound COC1C(OP(=O)([O-])OC[C@H]2O[C@@H](n3cnc4c(=O)[nH]c(N)nc43)C(O)C2O)[C@@H](COP(=O)(O)OP(=O)(O)OP(=O)(O)OC[C@]23O[C@@H]([n+]4cn(C)c5c(=O)[nH]c(N)nc54)C(O[C@H]2CCN(C)C)C3O)O[C@H]1n1cnc2c(N)ncnc21 (stereo partly shown) and give its recorded Yield per unit template.
Result string: 89.3

Query string: Consider the compound COC1C(OP(=O)([O-])OC[C@H]2O[C@@H](n3cnc4c(=O)[nH]c(N)nc43)C(O)C2O)[C@@H](COP(=O)(O)OP(=O)(O)OP(=O)(O)OC[C@]23O[C@@H]([n+]4cn(C)c5c(=O)[nH]c(N)nc54)C(O[C@H]2CC(=O)N(C)C)C3O)O[C@H]1n1cnc2c(N)ncnc21 (stereo partly shown) and give its recorded Yield per unit template.
Result string: 151.0

Query string: Consider the compound COC1C(OP(=O)([O-])OC[C@H]2O[C@@H](n3cnc4c(=O)[nH]c(N)nc43)C(O)C2O)[C@@H](COP(=O)(O)OP(=O)(O)OP(=O)(O)OC[C@]23O[C@@H]([n+]4cn(C)c5c(=O)[nH]c(N)nc54)C(O[C@H]2CC#N)C3O)O[C@H]1n1cnc2c(N)ncnc21 (stereo partly shown) and give its recorded Yield per unit template.
Result string: 103.1
